Task for the reader: assign each of the following compounds its reported melting point.

Q: melting point for Cc1ccc(N2N=C(C(F)(F)F)CC2c2ccc(S(C)(=O)=O)cc2)c(C)c1 (stereo not drawn) [Example 71] ?
Result: 132 to 133 °C

Q: Which melting point value belongs to NS(=O)(=O)c1ccc(N2N=C(C(F)(F)F)CC2c2ccc(F)cc2)cc1 (stereo not drawn) [Example 8] ?
Result: 154 to 156 °C

Q: I have this compound here, NS(=O)(=O)c1ccc(N2N=C(C(F)(F)F)CC2c2ccc(F)cc2Cl)cc1 (stereo not drawn) [Example 52] , and I need its recorded melting point.
Result: 167 to 169 °C

Q: Reported melting point for NS(=O)(=O)c1ccc(N2N=C(C(F)(F)F)CC2c2ccc(OC(F)(F)F)cc2)cc1 (stereo not drawn) [Example 22] : what is it?
Result: 134 to 137 °C

Q: Would you kindly share the measured melting point for COC(=O)C1=NN(c2ccc(S(N)(=O)=O)cc2)C(c2ccc(C)cc2)C1 (stereo not drawn) [Example 37] ?
Result: 192 to 197 °C

Q: // query melting point value for entry CS(=O)(=O)c1ccc(C2CC(C(F)(F)F)=NN2c2ccccc2F)cc1 (stereo not drawn) [Example 67]
Result: 98 to 99 °C

Q: // lookup melting point for CS(=O)(=O)c1ccc(N2N=C(C(F)(F)F)CC2c2ccc(F)cc2)cc1 (stereo not drawn) [Example 9]
Result: 121 to 122 °C

Q: Fill in the blank: the reported melting point of Cc1ccc(C2CC(C(=O)O)=NN2c2ccc(S(C)(=O)=O)cc2)cc1 (stereo not drawn) [Example 36] is ____.
Result: 202 to 205 °C

Q: Fill in the blank: the reported melting point of NS(=O)(=O)c1ccc(N2N=C(C(F)(F)F)CC2c2ccc(C(F)(F)F)cc2F)cc1 (stereo not drawn) [Example 53] is ____.
Result: 170 to 173 °C

Q: Would you mind telling me what melting point value was observed for COc1ccc(C2CC(C(F)(F)F)=NN2c2ccc(S(N)(=O)=O)cc2)cc1F (stereo not drawn) [Example 46] ?
Result: 108 to 114 °C

Q: So what does the record say about melting point for NS(=O)(=O)c1ccc(N2N=C(C(F)F)CC2c2ccc(F)cc2F)cc1 (stereo not drawn) [Example 57] ?
Result: 157 to 160 °C

Q: # melting point lookup, item NS(=O)(=O)c1ccc(N2N=C(C(F)(F)F)CC2c2ccc(F)c(F)c2)cc1 (stereo not drawn) [Example 11]
Result: 153 to 155 °C

Q: Quick one: melting point for CS(=O)(=O)c1ccc(C2CC=NN2c2ccc(F)cc2)cc1 (stereo not drawn) [Example 78] ?
Result: 155 to 160 °C

Q: Which measured melting point value corresponds to CS(=O)(=O)c1ccc(N2N=C(C(F)(F)F)CC2c2cccc(F)c2)cc1 (stereo not drawn) [Example 19] ?
Result: 149 to 151 °C

Q: Return reported melting point; argument: CS(=O)(=O)c1ccc(N2N=C(C(F)(F)F)CC2c2ccc(Cl)cc2Cl)cc1 (stereo not drawn) [Example 12]
Result: 198 to 200 °C

Q: Dear colleague, I am looking for the recorded melting point of the following compound: CC1=NN(c2ccccc2)C(c2ccc(S(C)(=O)=O)cc2)C1 (stereo not drawn) [Example 77]
Result: 132 to 135 °C

Q: Request the reported melting point associated with NS(=O)(=O)c1ccc(N2N=C(C(F)(F)F)CC2c2ccc(F)cc2C(F)(F)F)cc1 (stereo not drawn) [Example 58]
Result: 174 to 177 °C

Q: Form field: reported melting point of NS(=O)(=O)c1ccc(N2N=C(C(=O)O)CC2c2ccccc2)cc1 (stereo not drawn) [Example 35]
Result: 157 to 164 °C

---

What melting point was measured for each of the following?

Q: // query melting point value for entry Cc1ccccc1C1CC(C(F)(F)F)=NN1c1ccc(S(N)(=O)=O)cc1 (stereo not drawn)
Result: 124 to 126 °C

Q: May I ask what melting point has been recorded for Cc1cc(F)ccc1C1CC(C(F)(F)F)=NN1c1ccc(S(N)(=O)=O)cc1 (stereo not drawn) ?
Result: 154 to 160 °C

Q: What does the data say about its melting point? Entry: CS(=O)(=O)c1ccc(C2CC(C(F)(F)F)=NN2c2ccc(Cl)cc2Cl)cc1 (stereo not drawn)
Result: 103 to 106 °C

Q: What value of melting point has been reported for the following compound? NS(=O)(=O)c1ccc(C2CC(C(F)(F)F)=NN2c2ccc(F)cc2)cc1 (stereo not drawn)
Result: 138 to 140 °C

Q: I would be grateful if you could share the reported melting point for COC(=O)C1=NN(c2ccc(S(N)(=O)=O)cc2)C(c2ccccc2)C1 (stereo not drawn) .
Result: 84 to 90 °C

Q: Please give the measured melting point for this compound: CS(=O)(=O)c1ccc(N2N=C(C(F)(F)F)CC2c2ccccc2)cc1 (stereo not drawn)
Result: 137 to 140 °C

Q: If you can, please state the reported melting point value of Cc1ccc(C2CC(C(F)F)=NN2c2ccc(S(N)(=O)=O)cc2)c(C)c1 (stereo not drawn) .
Result: 181 to 183 °C

Q: # query: melting point of entry NS(=O)(=O)c1ccc(N2N=C(C(F)(F)F)CC2c2ccccc2F)cc1 (stereo not drawn)
Result: 166 to 168 °C

Q: # input compound: NC(=O)C1=NN(c2ccc(S(N)(=O)=O)cc2)C(c2ccccc2)C1 (stereo not drawn) ; wanted: its melting point
Result: 200 to 205 °C

---

- Tested on: NC59
- Experiment description: Cytotoxicity (XTT kit), human colon carcinoma cell line NC59
- Type: cell-based
- Reported conditions: read-out: IC-50 (cytotoxicity)
Readout: pIC50
When answering, recall that pIC50 equals minus log10 of the concentration in mol/L, and write that number alone.

Q: Please give the measured pIC50 for this compound: NS(=O)(=O)c1ccc(N2N=C(C(F)(F)F)CC2c2ccc(F)cc2F)cc1 (racemic)
Result: 4.52

Q: Any idea what pIC50 was measured for CS(=O)(=O)c1ccc(C2CC(C(F)(F)F)=NN2c2ccc(F)cc2)cc1 (centres unmarked) ?
Result: 4.57

---

Readout: melting point

Q: Reported melting point for Cc1ccc(C2CC(C(F)(F)F)=NN2c2ccc(S(C)(=O)=O)cc2)cc1 (centres unmarked) [Example 7] : what is it?
Result: 115 to 119 °C

Q: Please look up its melting point: NS(=O)(=O)c1ccc(N2N=C(C(F)(F)F)CC2c2ccccc2)cc1 (centres unmarked) [Example 5]
Result: 156 to 157 °C

Q: Any idea what melting point was measured for COc1ccc(C2CC(C(F)(F)F)=NN2c2ccc(S(N)(=O)=O)cc2)c(F)c1 (centres unmarked) [Example 47] ?
Result: 157 to 159 °C

Q: What does the record list as melting point for COC(=O)C1=NN(c2ccc(S(C)(=O)=O)cc2)C(c2ccc(C)cc2)C1 (centres unmarked) [Example 39] ?
Result: 155 to 160 °C

Q: Name the reported melting point value associated with the compound CC1=NN(c2ccc(S(C)(=O)=O)cc2)C(c2ccc(C)cc2)C1 (centres unmarked) [Example 29]
Result: 113 to 117 °C

---

- System: TD 20
- Experiment description: Cytotoxicity (XTT kit), human colon carcinoma cell line TD20
- Type: cell-based
- Reported conditions: read-out: IC-50 (cytotoxicity)
- Protocol: The anti-tumoral activity of the compounds with general formula (I) was studied, determining their effect on cell lines of human colon carcinoma (TD 20 and NC 59). The two cell lines have the wild protein K-Ras. TD20 contains a mutation of the p53 suppressor gene, while NC59 has the p53 wild protein. Both cell lines were cultured in a DMEM medium (Life Technologies) supplemented with 10% foetal bovine serum (Life Technologies) at 37° C. and 5% CO2. […]
I'd appreciate it if you could supply IC50 values for the items below.
Reply numerically in µM, unit not repeated.

Q: Fill in the blank: the reported IC50 of NS(=O)(=O)c1ccc(N2N=C(C(F)(F)F)CC2c2ccc(F)cc2F)cc1 (racemic) [Example 3] is ____.
Result: 33.9

Q: So what does the record say about IC50 for CS(=O)(=O)c1ccc(C2CC(C(F)(F)F)=NN2c2ccc(F)cc2)cc1 (centres unmarked) [Example 10] ?
Result: 37.9

---

- Tested on: MDAMB 453
- Experiment description: Cytotoxicity (XTT kit), mammary carcinoma cell line MDAMB 453
- Assay type: cell-based
- Reported conditions: Homo sapiens, MDA-MB-453, MDAMB 453; read-out: IC-50 (cytotoxicity)
Readout: pIC50
To interpret pIC50, take it as minus log10 of a concentration measured in moles per litre.

Q: Identify the measured pIC50 of CS(=O)(=O)c1ccc(C2CC(C(F)(F)F)=NN2c2ccc(F)cc2)cc1 (stereo not shown) [Example 10] for MDAMB 453.
Result: 4.74

---

Readout: melting point

Q: Quick check: melting point of COc1ccc(C2CC(C(F)(F)F)=NN2c2ccc(S(N)(=O)=O)cc2)c(OC)c1 (stereo not shown) ?
Result: 121 to 126 °C

Q: # query: melting point of entry CC1=NN(c2ccc(S(N)(=O)=O)cc2)C(c2ccc(C(F)(F)F)cc2)C1 (stereo not shown)
Result: 190 to 194 °C

Q: So what does the record say about melting point for Cc1cc(Cl)ccc1N1N=C(C(F)(F)F)CC1c1ccc(S(C)(=O)=O)cc1 (stereo not shown) ?
Result: 104 to 108 °C

Q: So what's the measured melting point for this one? Cc1ccc(C2CC(C(N)=O)=NN2c2ccc(S(C)(=O)=O)cc2)cc1 (stereo not shown)
Result: 128 to 132 °C

Data origin, for the record: patent US20040034082A1
